assay: Plasma clearance in cynomolgus monkey at 2 mg/kg; format: ADME, organism-based, Macaca fascicularis; set-up: dose 2 mg/kg
outcome-measure: clearance
Kindly write the number and append the unit.

Q: State the recorded clearance for this entry: CC(C)c1nccc2c1c(Sc1ccc(Cl)c(Cl)c1)c1n2CC[C@@H]1CC(=O)O
A: 21 mL/min/kg

====

assay: Bioavailability in squirrel monkey; assay type: ADME, organism-based; settings: saimiri, in vivo
outcome-measure: bioavailability
Kindly write the number and append the unit.

Q: State the recorded bioavailability for this entry: CC(C)c1nccc2c1c(Sc1ccc(Cl)c(Cl)c1)c1n2CC[C@@H]1CC(=O)O
A: 43%

====

assay: Plasma clearance in rat at 10 mg/kg; type: ADME, organism-based; set-up: dose 10 mg/kg
outcome-measure: clearance (mL/min/kg)
Give bare numbers, in mL/min/kg.

Q: State the recorded clearance for this entry: CC(C)c1nccc2c1c(Sc1ccc(Cl)c(Cl)c1)c1n2CC[C@@H]1CC(=O)O
A: 1.6

Data credit: ChEMBL document CHEMBL1154001
